This collection of values is drawn from patent US8703961B2.

pIC50: −log10 of the molar value.
Measured pIC50 on MAPK9 (Homo sapiens, UniProt P45984) follows.
Sequence (P45984 whole entry, species assumed): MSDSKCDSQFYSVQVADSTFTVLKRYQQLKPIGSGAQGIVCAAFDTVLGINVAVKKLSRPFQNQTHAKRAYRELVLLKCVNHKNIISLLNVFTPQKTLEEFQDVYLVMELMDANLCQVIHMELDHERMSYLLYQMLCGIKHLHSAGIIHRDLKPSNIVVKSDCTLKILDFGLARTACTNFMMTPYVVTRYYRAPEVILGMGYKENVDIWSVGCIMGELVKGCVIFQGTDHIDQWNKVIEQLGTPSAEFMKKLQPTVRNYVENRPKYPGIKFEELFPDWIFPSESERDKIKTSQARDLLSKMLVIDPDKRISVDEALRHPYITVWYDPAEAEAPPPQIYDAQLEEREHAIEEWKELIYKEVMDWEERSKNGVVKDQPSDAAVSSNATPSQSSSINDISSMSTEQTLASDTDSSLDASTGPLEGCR

For CC(C)(C)OC(=O)Nc1nc(-c2ccncc2)sc1C#CCN1CCOCC1 [Compound A25] on MAPK9 (Homo sapiens, UniProt P45984), measured pIC50 was < 6.00

For c1ccc(Cc2c[nH]c3ncsc23)cc1 [Compound A7, 6-benzyl-4H-pyrrolo[2,3-d]thiazole] on MAPK9 (Homo sapiens, UniProt P45984), measured pIC50 was 4.00 to 5.00

For Nc1ncsc1C#Cc1cccc(O)c1 [Compound A27, 3-(4-aminothiazol-5-ylethynyl)phenol] on MAPK9 (Homo sapiens, UniProt P45984), measured pIC50 was 5.00 to 6.00

For Nc1ncsc1C#Cc1cnc2[nH]ccc2c1 [Compound A22] on MAPK9 (Homo sapiens, UniProt P45984), measured pIC50 was < 6.00

For CC(C)(C)OC(=O)Nc1ncsc1C#CCN1C(=O)c2ccccc2C1=O [Compound A26] on MAPK9 (Homo sapiens, UniProt P45984), measured pIC50 was < 6.00

* * *

biological target: PIM1 (Homo sapiens)
Sequence (P11309 whole entry, species assumed): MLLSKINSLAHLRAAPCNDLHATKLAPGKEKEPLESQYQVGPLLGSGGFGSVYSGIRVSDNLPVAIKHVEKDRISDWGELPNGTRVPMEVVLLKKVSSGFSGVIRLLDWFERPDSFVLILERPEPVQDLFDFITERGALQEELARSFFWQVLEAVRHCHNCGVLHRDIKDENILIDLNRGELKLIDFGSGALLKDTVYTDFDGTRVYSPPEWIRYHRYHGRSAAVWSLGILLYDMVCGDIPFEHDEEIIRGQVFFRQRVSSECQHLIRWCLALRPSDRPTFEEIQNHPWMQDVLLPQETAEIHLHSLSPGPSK
pIC50: −log10 of the molar value.
ENDPOINT: pIC50

The molecule listed as CC(C)(C)OC(=O)Nc1nc(-c2ccncc2)sc1C#CCN1CCOCC1 [Compound A25] shows pIC50 equal to < 6.00

The molecule listed as Nc1ncsc1C#Cc1cccc(O)c1 [Compound A27, 3-(4-aminothiazol-5-ylethynyl)phenol] shows pIC50 equal to 5.00 to 6.00

The molecule listed as c1ccc(Cc2c[nH]c3ncsc23)cc1 [Compound A7, 6-benzyl-4H-pyrrolo[2,3-d]thiazole] shows pIC50 equal to 4.00 to 5.00

The molecule listed as CC(C)(C)OC(=O)Nc1ncsc1C#CCN1C(=O)c2ccccc2C1=O [Compound A26] shows pIC50 equal to 4.00 to 5.00

The molecule listed as Nc1ncsc1C#Cc1cnc2[nH]ccc2c1 [Compound A22] shows pIC50 equal to 5.00 to 6.00

* * *

Biological target: PRKD2 (Homo sapiens, UniProt Q9BZL6)
Sequence (Q9BZL6 1-878): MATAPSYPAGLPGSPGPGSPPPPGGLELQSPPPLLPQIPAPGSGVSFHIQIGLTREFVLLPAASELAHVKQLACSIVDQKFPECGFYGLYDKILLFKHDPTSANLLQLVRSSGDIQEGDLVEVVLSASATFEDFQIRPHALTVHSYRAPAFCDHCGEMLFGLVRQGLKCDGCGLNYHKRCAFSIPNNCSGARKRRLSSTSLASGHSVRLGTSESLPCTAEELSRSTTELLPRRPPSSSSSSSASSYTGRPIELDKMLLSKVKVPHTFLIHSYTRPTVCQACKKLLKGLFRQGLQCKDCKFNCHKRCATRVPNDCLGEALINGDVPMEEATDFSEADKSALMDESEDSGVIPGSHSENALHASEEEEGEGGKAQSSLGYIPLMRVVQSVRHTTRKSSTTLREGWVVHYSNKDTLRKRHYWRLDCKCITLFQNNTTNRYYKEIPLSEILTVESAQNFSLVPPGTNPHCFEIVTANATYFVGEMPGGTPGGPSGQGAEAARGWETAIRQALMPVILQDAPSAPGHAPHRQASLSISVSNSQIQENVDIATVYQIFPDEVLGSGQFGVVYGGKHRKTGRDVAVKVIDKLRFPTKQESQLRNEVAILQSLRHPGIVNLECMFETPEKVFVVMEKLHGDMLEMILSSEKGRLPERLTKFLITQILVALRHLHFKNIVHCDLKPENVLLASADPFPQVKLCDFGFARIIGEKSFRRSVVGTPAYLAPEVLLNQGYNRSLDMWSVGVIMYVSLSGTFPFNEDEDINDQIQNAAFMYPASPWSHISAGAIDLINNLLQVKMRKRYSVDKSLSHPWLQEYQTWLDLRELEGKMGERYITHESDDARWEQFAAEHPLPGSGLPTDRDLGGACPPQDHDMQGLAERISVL
ENDPOINT: IC50

The molecule listed as c1ccc(Cc2c[nH]c3ncsc23)cc1 [Compound A7, 6-benzyl-4H-pyrrolo[2,3-d]thiazole] shows IC50 equal to 1 to 10 µM

The molecule listed as CC(C)(C)OC(=O)Nc1ncsc1C#CCN1C(=O)c2ccccc2C1=O [Compound A26] shows IC50 equal to > 1 µM

The molecule listed as Nc1ncsc1C#Cc1cnc2[nH]ccc2c1 [Compound A22] shows IC50 equal to > 1 µM

The molecule listed as Nc1ncsc1C#Cc1cccc(O)c1 [Compound A27, 3-(4-aminothiazol-5-ylethynyl)phenol] shows IC50 equal to 1 to 10 µM

The molecule listed as CC(C)(C)OC(=O)Nc1nc(-c2ccncc2)sc1C#CCN1CCOCC1 [Compound A25] shows IC50 equal to > 1 µM
